# experimental.system: SMARCA4 (Homo sapiens)
# Sequence (P51532 whole entry): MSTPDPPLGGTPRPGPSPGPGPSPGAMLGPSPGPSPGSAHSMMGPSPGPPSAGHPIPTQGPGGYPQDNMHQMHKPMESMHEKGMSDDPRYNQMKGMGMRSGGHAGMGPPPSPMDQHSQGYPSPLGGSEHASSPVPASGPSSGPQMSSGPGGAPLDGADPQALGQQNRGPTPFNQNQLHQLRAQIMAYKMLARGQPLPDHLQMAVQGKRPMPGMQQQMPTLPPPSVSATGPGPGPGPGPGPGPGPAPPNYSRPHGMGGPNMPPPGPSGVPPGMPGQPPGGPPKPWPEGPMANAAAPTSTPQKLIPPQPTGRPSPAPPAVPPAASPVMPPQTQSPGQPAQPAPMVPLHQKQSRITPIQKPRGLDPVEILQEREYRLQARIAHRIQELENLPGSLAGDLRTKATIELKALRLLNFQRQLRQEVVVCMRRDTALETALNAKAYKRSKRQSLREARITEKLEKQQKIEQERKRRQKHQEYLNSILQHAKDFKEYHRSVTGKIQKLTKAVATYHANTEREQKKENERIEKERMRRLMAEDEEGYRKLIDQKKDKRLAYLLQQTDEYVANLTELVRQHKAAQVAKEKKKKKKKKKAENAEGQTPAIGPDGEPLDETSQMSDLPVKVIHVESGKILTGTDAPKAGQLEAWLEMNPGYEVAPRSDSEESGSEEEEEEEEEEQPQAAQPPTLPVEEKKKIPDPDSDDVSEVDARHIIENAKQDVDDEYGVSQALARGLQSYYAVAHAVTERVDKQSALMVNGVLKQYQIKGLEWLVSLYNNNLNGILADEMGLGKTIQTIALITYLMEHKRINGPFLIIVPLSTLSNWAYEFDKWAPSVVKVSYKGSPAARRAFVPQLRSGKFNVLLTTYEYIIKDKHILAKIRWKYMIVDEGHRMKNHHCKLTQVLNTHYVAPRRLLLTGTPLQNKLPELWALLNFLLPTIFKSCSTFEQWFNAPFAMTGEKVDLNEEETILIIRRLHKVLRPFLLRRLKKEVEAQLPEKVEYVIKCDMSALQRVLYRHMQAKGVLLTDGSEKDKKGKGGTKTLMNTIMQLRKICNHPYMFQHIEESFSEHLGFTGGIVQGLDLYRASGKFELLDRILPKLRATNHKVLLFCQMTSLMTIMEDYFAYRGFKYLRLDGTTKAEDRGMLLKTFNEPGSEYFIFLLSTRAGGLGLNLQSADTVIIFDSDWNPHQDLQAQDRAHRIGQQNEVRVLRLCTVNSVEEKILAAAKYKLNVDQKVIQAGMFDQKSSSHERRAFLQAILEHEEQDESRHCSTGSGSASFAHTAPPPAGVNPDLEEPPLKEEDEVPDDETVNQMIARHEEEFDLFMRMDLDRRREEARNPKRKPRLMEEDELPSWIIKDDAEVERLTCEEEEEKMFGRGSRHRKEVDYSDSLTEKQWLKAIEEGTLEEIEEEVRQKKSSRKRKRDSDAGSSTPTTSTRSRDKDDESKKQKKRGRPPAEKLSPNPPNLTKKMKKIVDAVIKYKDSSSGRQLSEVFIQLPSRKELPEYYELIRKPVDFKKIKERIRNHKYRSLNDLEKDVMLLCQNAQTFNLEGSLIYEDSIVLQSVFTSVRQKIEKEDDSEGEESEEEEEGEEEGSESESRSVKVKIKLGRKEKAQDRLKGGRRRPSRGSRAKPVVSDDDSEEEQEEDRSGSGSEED
# test.name: HiBit assay in engineered HT1080 CRISPR knock-in cell, 6 hrs (B series), SMARCA4
# Assay type: cell-based
# reported.conditions: HT1080 CRISPR knock-in cells, 6 hrs incubation; read-out: SMARC A4 HT1080 HiBit DC50
test.readout: DC50

// solved cases for DC50 follow
Cc1cc(C(C(=O)N2C[C@H](O)C[C@H]2C(=O)N[C@@H](C)c2ccc(-c3scnc3C#CCN3CCC(c4ccc5c(c4)C(C)(C)c4nc(=O)c6c(Cl)cccc6n4-5)CC3)cc2)C(C)C)on1 (stereo partly drawn) [Compound B144] ... < 100 nM
Cc1ncsc1-c1ccc([C@H](CC(=O)NC2CCC(N3CCC(c4ccc5c(c4)-n4c(nc(=O)c6c(Cl)cccc64)C5(C)C)CC3)CC2)NC(=O)[C@@H]2C[C@@H](O)CN2C(=O)[C@@H](NC(=O)C2(F)CC2)C(C)(C)C)cc1 (stereo partly drawn) [Compound B31] ... 100 to 500 nM

Turning now to a further compound:
Please report DC50 for the following compound: Cc1ncsc1-c1ccc([C@H](C)NC(=O)[C@@H]2C[C@@H](O)CN2C(=O)[C@@H](c2cc(OCCCCN3CCC(c4ccc5c(c4)-n4c(nc(=O)c6c(Cl)cccc64)C5(C)C)CC3)no2)C(C)C)cc1 [Compound B27]
< 100 nM
